target: Serine/threonine-protein kinase pim-1 (Homo sapiens, UniProt P11309); assay: Inhibition of human full length (His)6-tagged Pim-1 expressed in insect Sf21 cells using RSRHSSYPAGT as substrate assessed as residual enzyme activity at 1 uM measured for 30 mins by [gamma-33P]ATP-based kinase assay
Sequence (P11309 whole entry, looked up): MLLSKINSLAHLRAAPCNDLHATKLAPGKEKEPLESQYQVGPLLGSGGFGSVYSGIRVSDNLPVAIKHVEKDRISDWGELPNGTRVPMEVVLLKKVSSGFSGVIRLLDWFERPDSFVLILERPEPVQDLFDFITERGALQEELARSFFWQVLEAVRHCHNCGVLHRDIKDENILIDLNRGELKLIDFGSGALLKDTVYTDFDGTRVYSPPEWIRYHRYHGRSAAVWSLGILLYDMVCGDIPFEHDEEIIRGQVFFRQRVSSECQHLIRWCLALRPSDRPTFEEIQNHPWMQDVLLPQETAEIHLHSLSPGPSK
Hi there, I'd appreciate the recorded Activity for every entry that follows.
Report only the number, with the unit % understood.

Lookup: Item O=c1[nH][nH]c2c1c1c3ccccc3[nH]c1c1[nH]c3ccccc3c12 with Serine/threonine-protein kinase pim-1 (Homo sapiens, UniProt P11309) - Activity?
Found: 47

Lookup: Item c1ccc2c(c1)[nH]c1c3[nH]c4ccccc4c3c3[nH]ncc3c21 with Serine/threonine-protein kinase pim-1 (Homo sapiens, UniProt P11309) - Activity?
Found: 13

Lookup: Observed Activity on Serine/threonine-protein kinase pim-1 (Homo sapiens, UniProt P11309) for c1ccc2c(-c3cn[nH]c3-c3c[nH]c4ccccc34)c[nH]c2c1 , please.
Found: 98

Lookup: What value of Activity on Serine/threonine-protein kinase pim-1 (Homo sapiens, UniProt P11309) does O=c1[nH][nH]c(-c2c[nH]c3ccccc23)c1-c1c[nH]c2ccccc12 have?
Found: 94

###

molecular target: Protein kinase C gamma type (Homo sapiens) (UniProt P05129); test: Inhibition of human full length (His)6-tagged PKCgamma expressed in insect Sf21 cells using histone H1 as substrate assessed as residual enzyme activity at 1 uM measured for 30 mins by [gamma-33P]ATP-based kinase assay
Would you mind telling me the reported Activity of each entry?
A number alone suffices; assume %.

Lookup: What is its Activity for Protein kinase C gamma type (Homo sapiens) (UniProt P05129)? Entry: c1ccc2c(c1)[nH]c1c3[nH]c4ccccc4c3c3[nH]ncc3c21
Found: 101

Lookup: Find the measured Activity: item c1ccc2c(-c3cn[nH]c3-c3c[nH]c4ccccc34)c[nH]c2c1 , target or system Protein kinase C gamma type (Homo sapiens) (UniProt P05129).
Found: 105

Lookup: Write down the reported Activity of O=c1[nH][nH]c2c1c1c3ccccc3[nH]c1c1[nH]c3ccccc3c12 , test system: Protein kinase C gamma type (Homo sapiens) (UniProt P05129).
Found: 97

Lookup: What Activity appears in the records for this compound with Protein kinase C gamma type (Homo sapiens) (UniProt P05129)? O=c1[nH][nH]c(-c2c[nH]c3ccccc23)c1-c1c[nH]c2ccccc12
Found: 100

###

property: IC50 (nM)
Enter your answer as a number in nM; do not include the unit.

Lookup: Field: IC50 (Serine/threonine-protein kinase pim-2 (Homo sapiens)). Entry: c1ccc2c(c1)[nH]c1c3[nH]c4ccccc4c3c3[nH]ncc3c21
Found: 590

###

target: UniProt:P17252; assay: Inhibition of human full length (His)6-tagged PKCalpha expressed in insect Sf21 cells using histone H1 as substrate assessed as residual enzyme activity at 10 uM measured for 30 mins by [gamma-33P]ATP-based kinase assay
property: Activity (%)
Entry rule: numbers only, all in %.

Lookup: So what does the record say about Activity for O=c1[nH][nH]c(-c2c[nH]c3ccccc23)c1-c1c[nH]c2ccccc12 ?
Found: 93

Lookup: Fill in the blank: the reported Activity of c1ccc2c(-c3cn[nH]c3-c3c[nH]c4ccccc34)c[nH]c2c1 is ____.
Found: 100

Lookup: Data request, read-out Activity, for O=c1[nH][nH]c2c1c1c3ccccc3[nH]c1c1[nH]c3ccccc3c12
Found: 110

Lookup: Give the measured Activity of c1ccc2c(c1)[nH]c1c3[nH]c4ccccc4c3c3[nH]ncc3c21 .
Found: 108
